The values you see were collected from patent US20250281479A1.

# TEST_DETAILS: first-in-human single ascending dose and food-effect study, plasma pharmacokinetics
# Assay type: in vivo
# MEASUREMENT_PARAMETERS: both sexes, human, plasma, po, 150 mg, plasma NRL-1049; mean; 150 mg NRL-1049 single oral, Fasted, Cohort 3, N = 6; read-out: AUCinf
MEASUREMENT_TYPE: AUC(0-inf) (ng·h/mL)

> print(dat)
                                   compound  unit.of.measurement  test.value
1  C[C@@H](N)C1CCN(S(=O)(=O)c2cccc3cnccc23)CC1 [NRL-1049]              ng·h/mL        36.2
